Attribution: the nanobody polyreactivity screen of Harvey et al. (2022)

experiment: yeast display, Sf9 membrane polyspecificity reagent, FACS + sequencing; frameworks hold sequencing errors
EXPERIMENTAL READOUT: polyreactivity (PSR sort gate)

ITEM SEQUENCE	RESULT
QVQLVESGGSLVQAGGSLRLSCAASGRIFYYNAMGWYRQAPGKERELVAAISWSGGSTYYADSVKGRFTISRDNAKNTVYLQMNSLKPEDTAVYYCAVDVYGYTPRPTREPLIYEYWGQGTQVTVSS	low polyreactivity
QVQLVESGGGLVQAGGSLRLSCAASGSIFVYYVMGWYRQAPGKDRELVAAINSDGDGTYYADSVKGRFTISRDNAKNTVYLQMNSLKPEDTAVYYCNALNPKSYDYWGQGTQVTVSS	low polyreactivity

----------
assay: yeast display, Sf9 membrane polyspecificity reagent, FACS + sequencing; frameworks hold sequencing errors
EXPERIMENTAL READOUT: polyreactivity (PSR sort gate)

ITEM SEQUENCE	polyreactivity (PSR sort gate)
QVQLVESGGGLVQAGGSLRLICAASGSIFTKYAMVWYRQAPGKERELVAAITWSGGRTYYADSVKGRYTISRDNAKNTVYLQMNSLKPEDTAVYYCAAELFRQGYYYWGQGTQVTVSS	high polyreactivity
QVQLVESGGGLVQAGGSLRLSCAASGLIFAKYAMGWYRQAPGKERELVAGITSGGGTYYADSVKGRFTISRDNAKNTVYLQMNSLKPEDTAVYYCAVGREYFRWIRYDYDYWGQGTQVTVSS	low polyreactivity
QVQLVESGGGLVQAGGSLRLSCAASGRIFWSYAMGWYRQAPGKERELVAAITWRTGRTYYADSVKGRFTISRDNAKNTVYLQMNSLKPEDTAVYYCAAEGYLWGQSYNGLNYDSWGQGTQVTVSS	low polyreactivity
QVQLVESGGGLVQAGGSLRLRCAASGGIFGLYTMGWYRPAPGKERELVAGISKRGTRTRYADSVKGRFTISRDNAKNTVYIQMTSLKPEDTAVYYCNADYYVSKLDYWGQGTQVTVSS	high polyreactivity
QVQLVESGGGLVQAGGSLRLSCAASGGTFNTNAMGWYRQAPGKERELVATIRGGVITTYADSVKGRFTISRDNAKNTVYLQMNSLKPEDTAVYYCAVDDLRGYDYWGQGTQVTVSS	low polyreactivity

State the recorded polyreactivity (PSR sort gate) for every item in the following list.
1. QVQLVESWAGLVQAGGSLRLSCAASGSTFSGYTMGWYRQAPGKEREFVAAISSRGGSTYYADSVKGRFTISRDNAKNTVYLHMNSLKPEDTAVYYCAAKVWARVDGRQFRMEYWGQGTQVSVSS
2. QVQLVESGGGLVQAGGRLRLSCAASGYIFNYDMGWYRPAPGKERELVAAINYSGRTYYADSVKGRFTISRDNAKNTVYLQMNRLKAEDTAVYYCAARIIVDDVGTKYYYWGQGTQVTVSS
3. QVQLVESGGGLVQAGGSLRLSCAASGSIFVGNAMGWYRQAPGKERELVAAISRGGGSTYYADSVKGRFTISRDNAKNTVYLQMNSLKPEDTAVYYCAAVKYYYGSAYDYWGQGTQVTVSS
4. QVQLVESGGGLVQAGGSLRLSCAASGRTFRQYAMGWYRQAPGKERELVATISSGGSTYYADSVKGRFTISRDNAKNTVYLLMNSLKPEDTAVYYCAAPYWARKYWRKFGPFDYWGQGTQVTVSS
5. QVQLVESGGGLVQAGGSLRLSCAASGRTFSYYAMGWYRQAPGKERELGAANSGGGRTNYADSVKGRFTISRDNAKNTVYLQMNSLKPEDTAVYYCAAGASRKYQYYSRSYDYWGQGTQVTVSS
6. QVQLVESGGGLVHAGGSLRLSCAASGSTFQLNAMGWYRQAPGKERELVAAISTRGGSTYYADSLKGRFTISRDNAKNTVYLQMNSLKPEDTAVYYCAARLYTRRDYWGQATQVTVSS
7. QVQLVESGGGLVQAGGSLRLSCAASGRIFPRYAMGWYRQAPGKERELVARITRRGGITYYADSVKGRFTISRDNAKNTVYLQRNSLIPEDTAVYYCNVDYYSGGEFSYGYDYWGQGTQVTVSS

high polyreactivity
high polyreactivity
high polyreactivity
low polyreactivity
high polyreactivity
high polyreactivity
high polyreactivity
